Percent Activity Improvement Over Parent (%) listing for selected molecules.
test: Dicamba decarboxylation activity of computationally designed protein variants; settings: parent SEQ ID NO:1 or SEQ ID NO:41 listed as 100
Field format: number, assumed %, no unit text.

molecule: 110 (protein, Dicamba decarboxylase variant clone DC.4.111) MAQGKVALEEHFAIPETLQDSMGFVPGDYWKELMHRLLDIQDTRLKLMDAHGIETMILSLNAPAVQAIPDRRKAIEIARRANDVLAEECAKRPDRFLAFAALPLQDPDAATEELQRCVNDLGFVGALVNGFSQEGDGQTPLYYDLPQYRPFWGEVEKLDVPFYLHPRNPLPQDSRIYDGHPWLLGPTWAFAQETAVHALRLMASGLFDEHPRLNIILGHMGEGLPYMMWRIDHRMAWVKLPPRYPAKRRFMDYFNENFHITTSGNFRTQTLIDAILEIGADRILFSTDWPFENIDHASDWFNATSIAEADRVKIGRTNARRLFKLDGA
value: 277

Req: Any idea what its Percent Activity Improvement Over Parent (%) is? The molecule is 114 (protein, Dicamba decarboxylase variant clone DC.4.116) MAQGKVALEEHFAIPETLQDSAGAVPGDYWKELQHRLLDIQDTRLKLMDAHGIETMILSLNAPAVQAIPDRRKAIEIARRANDVLAEECAKRPDRFLAFAALPLQDPDAATEELQRCVNDLGFVGALVNGFSQEGDGQTPLYYDLPQYRPFWGEVEKLDVPFYLHPRNPLPQDSRIYDGHPWLLGPTWAFAQETAVHALRLMASGLFDEHPRLNIILGHMGEGLPYMMWRIDHRVAWVKLPPRYPAKRRFMDYFNENFHITTSGNFRTQTLIDAILEIGADRILFSTDWPFENIDHASDWFNATSIAEADRVKIGRTNARRLFKLDGA
Resp: 221

Data credit: patent US20140287419A1
